Data provenance: patent US20250197503A1

Listed next: entries and their corresponding Improved value of relative affinity.
Molecular target: T1, human PD-L1 protein (ELISA antigen) (human, UniProt Q9NZQ7 19-238, limits assumed)
T1 construct: One molecule is used for both ELISAs; also called PD-L1-biotin protein
T1 sequence (Q9NZQ7 19-238 limits assumed): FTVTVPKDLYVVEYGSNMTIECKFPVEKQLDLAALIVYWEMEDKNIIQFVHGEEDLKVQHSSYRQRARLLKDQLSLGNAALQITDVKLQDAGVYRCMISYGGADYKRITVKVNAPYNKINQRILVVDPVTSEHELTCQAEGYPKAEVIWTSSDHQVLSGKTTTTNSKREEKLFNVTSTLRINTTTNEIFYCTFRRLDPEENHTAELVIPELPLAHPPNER
Assay: relative to original antibody h_Nb1 (SEQ ID NO. 1); ELISA comparison per Example 10
// response body must contain only the number

h_Nb1_A61K (VHH, also called 74) VHH: DVQLQESGGGLVQPGGSLRLSCAASGFTFSSYAMSWVRQAPGKGLEWVSDINSGGDNTDYKDSVKGRFTISRDNAKNTLYLQMNSLKPEDTAVYYCARGPKLCFSSWGQGTQVTVSS; 4.12

Give its Improved value of relative affinity value. Item: h_Nb1_C103K (VHH, also called 80) VHH: DVQLQESGGGLVQPGGSLRLSCAASGFTFSSYAMSWVRQAPGKGLEWVSDINSGGDNTDYADSVKGRFTISRDNAKNTLYLQMNSLKPEDTAVYYCARGPKLKFSSWGQGTQVTVSS
3.31
